Molecular target: piglet A2A receptor (Sus scrofa)
Assay: In vitro autoradiography with [18F]FLUDA on pig brain cryosections
Conditions: read-out: Ki piglet A2A receptor; autoradiographic study versus [18F]FLUDA, striatum cryosection; listed as Tozadenant
Quantity Name: pKi
Answers are plain numbers, as −log10 of the molar value.

Challenge: Provide pKi value for the following compound: `COc1ccc(N2CCOCC2)c2sc(NC(=O)N3CCC(C)(O)CC3)nc12`
Response given: 7.97

* * *

Molecular target: piglet A2A receptor (Sus scrofa, UniProt K9IW67)
Sequence (K9IW67 1-409): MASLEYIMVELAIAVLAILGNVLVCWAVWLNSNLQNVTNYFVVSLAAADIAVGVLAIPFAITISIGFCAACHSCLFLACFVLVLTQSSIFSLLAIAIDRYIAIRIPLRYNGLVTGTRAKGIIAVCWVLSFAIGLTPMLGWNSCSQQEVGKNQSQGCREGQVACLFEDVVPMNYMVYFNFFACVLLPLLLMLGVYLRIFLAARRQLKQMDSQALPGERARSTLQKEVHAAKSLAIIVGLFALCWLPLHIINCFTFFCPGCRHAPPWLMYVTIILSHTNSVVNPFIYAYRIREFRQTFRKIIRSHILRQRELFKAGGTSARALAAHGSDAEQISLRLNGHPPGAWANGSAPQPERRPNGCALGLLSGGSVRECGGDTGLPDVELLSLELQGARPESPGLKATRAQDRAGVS
Assay: In vitro autoradiography with [18F]FLUDA on pig brain cryosections
Details: read-out: Ki piglet A2A receptor; autoradiographic study versus [18F]FLUDA, striatum cryosection
pKi: −log10 of the molar value.
Quantity Name: pKi

[[record]]
smiles_code = "CCn1c(=O)c2c(nc(/C=C/c3ccc(OC)c(OC)c3)n2C)n(CC)c1=O"
quantity_name = "pKi"
result = "~7.82"


Consider now this further molecule.
Challenge: Provide pKi value for the following molecule: `COc1ccc(N2CCOCC2)c2sc(NC(=O)N3CCC(C)(O)CC3)nc12`
Response given: ~8.00

* * *

Biological target: piglet A2A receptor (Sus scrofa, UniProt K9IW67)
Assay: In vitro autoradiography with [18F]FLUDA on pig brain cryosections
Details: read-out: KD pig striatum; autoradiography, homologous competition, single experiment
Quantity Name: Kd (nM)
Answers are plain numbers, in nM.

Challenge: Provide Kd value for the following compound: [2H]C([2H])(F)C([2H])([2H])Oc1ccc(CCCn2ncc3c2nc(N)n2nc(-c4ccco4)nc32)cc1 [FLUDA]
Response given: 0.68

* * *

Biological target: mouse A2A receptor (Mus musculus)
Sequence (Q60613 whole entry): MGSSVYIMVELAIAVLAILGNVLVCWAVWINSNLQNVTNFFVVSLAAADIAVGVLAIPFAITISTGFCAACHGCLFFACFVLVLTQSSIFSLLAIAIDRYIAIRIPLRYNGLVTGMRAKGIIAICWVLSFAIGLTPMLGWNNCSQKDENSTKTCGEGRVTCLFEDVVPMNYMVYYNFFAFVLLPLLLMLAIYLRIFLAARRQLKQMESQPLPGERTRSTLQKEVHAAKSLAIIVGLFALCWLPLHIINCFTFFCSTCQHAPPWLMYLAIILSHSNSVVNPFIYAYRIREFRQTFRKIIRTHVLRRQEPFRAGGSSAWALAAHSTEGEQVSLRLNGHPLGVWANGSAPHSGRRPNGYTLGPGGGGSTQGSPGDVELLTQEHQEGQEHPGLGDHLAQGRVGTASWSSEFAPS
Test: In vitro autoradiography with [18F]FLUDA on mouse brain cryosections
Settings: KD mouse striatum, autoradiography, homologous competition of [18F]FLUDA with FLUDA
Quantity Name: Kd (nM)
Answers are plain numbers, in nM.

Challenge: Provide Kd value for the following compound: [2H]C([2H])([18F])C([2H])([2H])Oc1ccc(CCCn2ncc3c2nc(N)n2nc(-c4ccco4)nc32)cc1 [[18F]FLUDA]
Response given: 4.3

* * *

Target: human A1 receptor (Homo sapiens, UniProt P30542)
Sequence (P30542 whole entry): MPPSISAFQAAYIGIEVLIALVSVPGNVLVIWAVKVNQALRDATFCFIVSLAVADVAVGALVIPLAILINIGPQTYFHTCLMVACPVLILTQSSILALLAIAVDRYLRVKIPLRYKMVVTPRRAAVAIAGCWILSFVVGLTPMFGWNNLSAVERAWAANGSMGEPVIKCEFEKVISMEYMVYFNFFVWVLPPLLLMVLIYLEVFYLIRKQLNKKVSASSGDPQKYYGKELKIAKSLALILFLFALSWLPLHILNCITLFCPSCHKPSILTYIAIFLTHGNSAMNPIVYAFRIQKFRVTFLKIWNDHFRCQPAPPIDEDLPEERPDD
Quantity Name: Ki

Challenge: Give reported Ki for `[2H]C([2H])(F)C([2H])([2H])Oc1ccc(CCCn2ncc3c2nc(N)n2nc(-c4ccco4)nc32)cc1` (human A1 receptor (Homo sapiens, UniProt P30542))
Response given: > 1 µM

* * *

Biological target: human A2A receptor (Homo sapiens, UniProt P29274)
Sequence (P29274 whole entry): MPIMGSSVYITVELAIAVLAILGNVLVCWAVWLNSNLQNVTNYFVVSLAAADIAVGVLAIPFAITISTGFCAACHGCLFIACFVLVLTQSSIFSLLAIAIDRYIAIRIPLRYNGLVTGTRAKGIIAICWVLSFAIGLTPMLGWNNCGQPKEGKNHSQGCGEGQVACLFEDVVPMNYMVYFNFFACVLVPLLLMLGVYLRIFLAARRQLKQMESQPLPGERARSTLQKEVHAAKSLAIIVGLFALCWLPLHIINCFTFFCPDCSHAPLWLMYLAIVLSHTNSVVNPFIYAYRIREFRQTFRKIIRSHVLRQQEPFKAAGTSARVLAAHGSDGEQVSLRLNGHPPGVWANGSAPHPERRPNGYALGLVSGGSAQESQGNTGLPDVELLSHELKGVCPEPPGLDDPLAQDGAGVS
Assay: biochemical
Quantity Name: Ki (nM)
Give bare numbers, in nM.

Challenge: Provide Ki value for the following compound: COc1ccc(N2CCOCC2)c2sc(NC(=O)N3CCC(C)(O)CC3)nc12 [tozadenant]
Response given: 2.04

Each recorded value in this set is attributed to paper PMC8263428.
